- system.under.test: GlyT1 (Homo sapiens)
- Sequence (P48067 whole entry): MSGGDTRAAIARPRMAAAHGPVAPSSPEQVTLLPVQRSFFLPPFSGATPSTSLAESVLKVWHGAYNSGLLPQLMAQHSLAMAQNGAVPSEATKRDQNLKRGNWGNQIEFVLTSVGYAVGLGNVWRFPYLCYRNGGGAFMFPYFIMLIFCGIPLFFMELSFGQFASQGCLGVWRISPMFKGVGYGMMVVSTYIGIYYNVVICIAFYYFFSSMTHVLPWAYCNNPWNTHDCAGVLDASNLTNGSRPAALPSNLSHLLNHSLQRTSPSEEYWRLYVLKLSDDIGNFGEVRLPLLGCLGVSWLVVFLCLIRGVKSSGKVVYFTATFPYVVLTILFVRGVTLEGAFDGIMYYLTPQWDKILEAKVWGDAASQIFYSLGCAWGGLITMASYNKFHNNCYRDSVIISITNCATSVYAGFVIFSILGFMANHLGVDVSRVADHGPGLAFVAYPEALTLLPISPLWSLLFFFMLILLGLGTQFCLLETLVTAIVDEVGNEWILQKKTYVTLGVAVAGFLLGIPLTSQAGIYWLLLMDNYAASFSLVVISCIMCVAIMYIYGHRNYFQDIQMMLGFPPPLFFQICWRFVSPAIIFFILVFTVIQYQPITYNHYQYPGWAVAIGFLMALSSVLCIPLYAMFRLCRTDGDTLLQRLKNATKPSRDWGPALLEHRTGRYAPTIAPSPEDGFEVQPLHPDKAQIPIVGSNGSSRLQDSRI
- test.method.notes: 3H-glycine uptake in HepG2 cells overexpressing GlyT1
- measurement.parameters: engineered HepG2 overexpressing untagged or HA-Flag-tagged GlyT1; 20 nM 3H-glycine + 25 μM unlabeled glycine, 60 min
property.name: IC50

# IC50 measured on GlyT1 (Homo sapiens) for item "C[C@H](Oc1ccc(S(C)(=O)=O)cc1C(=O)N1CCN(c2ncc(C(F)(F)F)cc2F)CC1)C(F)(F)F" = 710 to 1540 nM
